Biological target: full length human Dynamin I (Homo sapiens)
Construct: full length human Dynamin I expressed in Sf21 insect cells; made in house; host or cells: Sf21 insect cells
Sequence (Q05193 whole entry): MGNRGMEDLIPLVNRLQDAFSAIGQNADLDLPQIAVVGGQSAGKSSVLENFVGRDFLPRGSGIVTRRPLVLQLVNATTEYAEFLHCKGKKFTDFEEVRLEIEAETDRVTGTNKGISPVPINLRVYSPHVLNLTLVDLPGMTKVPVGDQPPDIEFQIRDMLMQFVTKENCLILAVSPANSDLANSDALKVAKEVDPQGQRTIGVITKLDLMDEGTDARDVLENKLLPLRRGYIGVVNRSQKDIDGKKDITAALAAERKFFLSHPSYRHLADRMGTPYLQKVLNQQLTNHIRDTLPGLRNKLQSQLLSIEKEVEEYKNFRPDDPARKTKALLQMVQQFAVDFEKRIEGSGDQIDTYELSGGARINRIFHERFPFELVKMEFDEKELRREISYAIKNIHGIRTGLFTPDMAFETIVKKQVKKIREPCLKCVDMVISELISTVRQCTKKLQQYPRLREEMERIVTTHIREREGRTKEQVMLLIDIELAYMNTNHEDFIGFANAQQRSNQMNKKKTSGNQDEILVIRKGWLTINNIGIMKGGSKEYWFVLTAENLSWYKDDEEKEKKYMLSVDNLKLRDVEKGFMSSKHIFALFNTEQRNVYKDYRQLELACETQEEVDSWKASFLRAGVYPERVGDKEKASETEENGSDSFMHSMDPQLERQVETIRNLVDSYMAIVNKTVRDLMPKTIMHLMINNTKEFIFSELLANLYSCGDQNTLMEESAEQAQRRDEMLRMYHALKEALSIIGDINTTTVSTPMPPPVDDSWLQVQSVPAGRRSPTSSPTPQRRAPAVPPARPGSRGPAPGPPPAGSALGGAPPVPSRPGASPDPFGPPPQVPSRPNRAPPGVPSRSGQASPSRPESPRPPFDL
Test: Dynamin GTPase activity, Malachite Green phosphate detection assay
Assay type: biochemical
Settings: Table 4, library 4; n = 1 or n = 2 as footnoted; '–' = not active at 100 μM; read-out: Dynamin 1 IC50
pIC50: −log10 of the molar value.
// reported pIC50 per item

compound	tested on	pIC50
O=C1N=C(NS(=O)(=O)c2cccc3ccccc23)S/C1=C\c1ccc2c(c1)OCCO2 [compound 54]	full length human Dynamin I (Homo sapiens)	4.22
O=C1N=C(NS(=O)(=O)c2cccc3ccccc23)S/C1=C\c1ccc2[nH]ccc2c1 [compound 59]	full length human Dynamin I (Homo sapiens)	4.08
O=C1N=C(NS(=O)(=O)c2cccc3ccccc23)S/C1=C\c1ccc2c(c1)CCO2 [compound 57]	full length human Dynamin I (Homo sapiens)	< 4.00
O=C1N=C(NS(=O)(=O)c2cccc3ccccc23)S/C1=C\c1ccc2nsnc2c1 [compound 58]	full length human Dynamin I (Homo sapiens)	~4.16

State the recorded pIC50 for this entry: O=C1N=C(NS(=O)(=O)c2cccc3ccccc23)S/C1=C\c1c[nH]c2ccc(Cl)cc12 [compound 66]
< 4.00

Same again, this time with O=C1N=C(NS(=O)(=O)c2cccc3ccccc23)S/C1=C\c1c[nH]c2cc(Br)ccc12 [compound 64]
< 4.00

Same again, this time with CN1CCOc2cc(/C=C3\SC(NS(=O)(=O)c4cccc5ccccc45)=NC3=O)ccc21 [compound 53]
4.00

Same again, this time with O=C1N=C(NS(=O)(=O)c2cccc3ccccc23)S/C1=C\c1ccc2c(c1)OCO2 [compound 56]
< 4.00
